- System: RARa:RXR (NR concentration 270 nM, RXRa partner concentration 90 nM)
- Run Description: PBM binding z-score (relative to random genomic background probes); higher = stronger binding; sequences stand for … in GC…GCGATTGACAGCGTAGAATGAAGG
Returns one of Y or N; Y when PBM binding z-score is >= 3.

1. ATATGTAGGTTAGCTGGGGTCATCCAGACTAGGC :: Y
2. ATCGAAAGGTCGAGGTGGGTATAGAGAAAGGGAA :: Y
3. ATCGAAAGGTCGAATGTGAGTATACCCACCCGAA :: N
4. CAGCCTACGTCAGGGCCAGTATAGGAGGAACGTT :: N
5. CGAACTAGCTCAGAACAGGACAGTGAAGGATGAT :: N
6. GCGCCTGGGGCATCAGCAGGTTACCATAACTTAA :: N
7. GGAACGAGGGCATGCGAGTTGATAGCATGGCGAT :: N
8. GCATATAGGTAATACAAGGTGAAAGTGCGATTGT :: N
9. TAGCCTAGGTCAGATCGAGCCAGTATACGCTATA :: N
10. ATCGAAAGGTCGTGAGCTGAGTATACAGAAAGGC :: Y
11. TCTGCTAGATCAGTTGGTCAGCTAACGAGCTGCC :: N
12. TCGAGTAGGTTACCAAAGGGGCATTCAGCTTTCT :: N
13. GCGACTGGTGCAAAGCAGGTTACCATAAGGTTGG :: N
14. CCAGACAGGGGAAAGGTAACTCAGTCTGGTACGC :: N
15. TCTAGTTGGTCACGAAGGTCACACACGACGGGTA :: Y
16. GCTTGTAGATCAAGGTTTAGAAAGACTAAGCTAA :: N
17. AGTCAAAGTTCACTAGGTAACGTACGATTCAGCT :: Y
18. TCTAGTTGGTCAAAGCTCACACACTCGAAATGCG :: N
19. CGAACTAGGTCAAGGACAGAGAATCTCCGCACGC :: N
20. TCTTGTAGATCAATAGAGTTTAAGAAAGTGCGCT :: N
21. ACTAGCAGGCCAAGTTTGGGTCACTCATACAAAG :: N
22. CCGAGTAGGTTATGGGGCATCCAGGCAACGGTGA :: N
23. TAGCCTAGGTCATTCAGGGGCCAGTATCGAAAGC :: Y
24. TCCTATAGGTAATACAGGTGAAAGTCGGCATCTA :: N
25. ATATGTAGGTTAGGTGGGGTCATTCAGACTAGGC :: Y
26. CGTCCAAGGTCATAGGAGGTCAGTAAAGACAGAT :: Y
27. ATCTATAGGTAAAGATAGTTCAGTGAATGCAAAT :: N
28. ATATGTAGGTTAGCTCGGGTCATTCAGACTAGGC :: Y
29. CGTCCAAGGTCAGCAGGTCAGTGGAAGCGACGTG :: Y
30. TCTTGTAGATCACTAGAGGTTAAGAAAGTGCGCT :: N
31. CCTACTGGGCCATTCAGATGTCATTGATCATATG :: N
32. TCGAGTAGGTTACCCATGGGGCATTCAGCTTTCT :: N
33. AGAATGACGTTACCAAAGATCAGGGAAACGCTTG :: N
34. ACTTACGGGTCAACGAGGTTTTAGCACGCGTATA :: Y
35. GCATATAGGTAATACAGGGTGAAAGTCCGATTGT :: N
36. TCTAGGTGGTCACGGAGGTCACACACGACGGGTA :: Y
37. TGAATGAGTTTATAAGATCAGGGAACGTTGCAAA :: N
38. CAGCCTAGGTCAGGGCCAGTAAAGGAGGAACGTT :: N
39. TGTTAAAGTTCAAAGGTAACGTAAGTATCCACAC :: Y
40. TCAGACAGGTGAAGGTAACACAGGTACGCAGTCG :: N
41. AGAAAGAGGTTAAGATCAGGGAAACAGAATACAT :: N
